assay_overview: Tmax in human at 500 mg, po by HPLC-ESIMS/MS analysis
Assay type: ADME, organism-based
conditions: in vivo
reported_metric: Tmax (h)
Reply with just the number (in h).

Identify measured Tmax associated with COc1ccc2cc3[n+](cc2c1OC)CCc1cc2c(cc1-3)OCO2.[Cl-] [BERBERINE CHLORIDE]
1

* * *

assay_overview: 1-Octanol-water distribution coefficient, log D of the compound at pH 4.5 after 1 week by HPLC-ESIMS/MS analysis
Type: physicochemical
Response field label takes 1 when logD at 168 h is strictly below 0.01 and -1 in all other cases.

Example entries begin here.
COc1ccc2cc3[n+](cc2c1OC)CCc1cc2c(cc1-3)OCO2.[Cl-] [BERBERINE CHLORIDE]: 1
COc1ccc2cc3n(cc-2c1=O)CCc1cc2c(cc1-3)OCO2: -1
COc1cc2c(cc1O)CC[n+]1cc3c(OC)c(OC)ccc3cc1-2.[Cl-] [JATRORRHIZINE CHLORIDE]: 1

# check: logD at 168 h < 0.01 for COc1ccc2cc3[n+](cc2c1OC)CCc1cc(O)c(O)cc1-3.[Cl-]
1
